- Tested system: SV40 large T antigen (Tag) (Simian virus 40, UniProt P03070 1-708)
- Sequence (P03070 whole entry): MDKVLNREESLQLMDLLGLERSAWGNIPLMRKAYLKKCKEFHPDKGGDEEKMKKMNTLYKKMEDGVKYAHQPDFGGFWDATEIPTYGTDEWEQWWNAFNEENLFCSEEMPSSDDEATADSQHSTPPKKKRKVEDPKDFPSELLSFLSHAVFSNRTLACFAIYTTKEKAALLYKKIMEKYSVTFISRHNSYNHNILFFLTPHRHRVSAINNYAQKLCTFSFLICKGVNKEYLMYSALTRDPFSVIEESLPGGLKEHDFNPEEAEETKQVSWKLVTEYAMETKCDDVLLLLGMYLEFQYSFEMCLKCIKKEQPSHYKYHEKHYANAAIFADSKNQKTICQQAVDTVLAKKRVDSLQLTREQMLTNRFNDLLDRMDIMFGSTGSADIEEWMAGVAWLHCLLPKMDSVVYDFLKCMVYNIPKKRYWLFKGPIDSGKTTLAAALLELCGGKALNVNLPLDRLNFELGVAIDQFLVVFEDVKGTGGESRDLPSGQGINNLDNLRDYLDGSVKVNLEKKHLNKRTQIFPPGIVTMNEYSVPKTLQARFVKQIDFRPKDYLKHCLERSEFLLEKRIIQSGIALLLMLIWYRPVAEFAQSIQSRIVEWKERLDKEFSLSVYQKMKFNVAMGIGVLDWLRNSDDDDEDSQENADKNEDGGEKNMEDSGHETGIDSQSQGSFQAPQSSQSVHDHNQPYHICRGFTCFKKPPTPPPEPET
- Procedure text: DSF
Outcome measure: pKd
// pKd here means minus log10 of the molar concentration (mol/L)

Exam item: Would you kindly share the measured pKd for ssDNA(Site2) (ssDNA) DNA: GCTCAGAGGCCGAGGCGGCCTCGGCCTCTGCATAAATAAAAAAAATTAGTCAGCCAT ?
Marked response: 7.00
